B1: TPR t1 (parent)
chain: GACCAAUCUGCCCUCAGAGCUCGAGAACAUCUUCGGAUGCAGAGGAGGCAGGCUUCGGUGGCGCGAUAGCGCCAACGUCCUCAACCUCCAAUGCAUCCCACCACAUGAUGAUGCCUGAAGAGCCUUGGUUUUUUG

variants of: B1; test: polymerase ribozyme fitness, log enrichment relative to wild type (log ratio); higher = more active; in vitro selection for triplet polymerase activity
Tag: 1 (yes) if measured polymerase ribozyme fitness (log ratio) is not below -3, 0 (no) if it is.

Some entries whose results are on file:
A18U C123G U129A :: 1 (yes)
G47A A91C G117U U133G :: 0 (no)
C94U A95C :: 1 (yes)
C34U U59A :: 0 (no)
G63U C79G :: 0 (no)
A6C C72G U87A U112A G113U G117C U130G :: 0 (no)

Dear colleague, could you confirm whether A6U G69A has polymerase ribozyme fitness (log ratio) at or above -3?
1 (yes)

Does the variant C56U G61C G117C have recorded polymerase ribozyme fitness (log ratio) that is -3 or more?
0 (no)

Say whether A2C C4A G44A C49U G63A shows polymerase ribozyme fitness (log ratio) of -3 or more.
0 (no)

Say whether G58C C73G C80U C102A G113A shows polymerase ribozyme fitness (log ratio) of -3 or more.
0 (no)

Hello, I need to know if C11G U32C G35C C97U G120C has measured polymerase ribozyme fitness (log ratio) not below -3. Thanks!
1 (yes)

Would you say G44U U96C G120A G122A U129G shows polymerase ribozyme fitness (log ratio) at minimum -3?
1 (yes)

Check if polymerase ribozyme fitness (log ratio) >= -3 (inclusive). Item: C3U C62G G113A C114G A121U
0 (no)

# check: polymerase ribozyme fitness (log ratio) of G77U is greater than or equal to -3
1 (yes)
